Data credit: ChEMBL document CHEMBL4346660

// IC50 lookup, one value per entry
system: L02; assay: Cytotoxicity against human HL7702 cells assessed as reduction in cell viability incubated for 48 hrs by MTT assay; assay type: cell-based; conditions: L02, 48 h

>  <smiles.code>
COc1cc2c(cc1OC)-c1nc3ccc(Cl)cc3c(NCCCN(C)C)c1C2

>  <measured.on>
L02

>  <IC50 (nM)>
2600

$$$$
>  <smiles.code>
Brc1ccc2nc3c(c(NCCCN4CCOCC4)c2c1)Cc1ccccc1-3

>  <measured.on>
L02

>  <IC50 (nM)>
5710

$$$$
>  <smiles.code>
CN(C)CCNc1c2c(nc3ccccc13)-c1ccccc1C2

>  <measured.on>
L02

>  <IC50 (nM)>
1310

$$$$
